- Tested on: NCI-H226 lung
- assay.notes: NCI tumour cell line growth inhibition, 48 h
value.kind: TGI

molecule="NCCCC(N)C(=O)O (stereo not given)" value_kind=TGI result="> 100 µM"

Batch request: TGI for each of the following molecules.
1. CCC1CCC2CCCC(C)N12 (stereo not given)
2. CC1=C2c3ccccc3N(C(=O)/C=C/C(=O)O)[C@H]2[C@H]2C(=O)OC(=O)[C@H]2C1
3. CC(C)CCNC(=O)c1ccc(CNC(=O)/C=C/c2ccc(OCc3ccccc3)cc2)cc1
4. COC(=O)CCCC(=O)C(=Nc1c(Cl)cccc1Cl)NNc1ccc(Cl)cc1

Response:
1. > 100 µM
2. > 10 µM
3. > 100 µM
4. > 100 µM
